The measured values listed here are drawn from patent US4146720A.

Reported LD50 values follow for various compounds
- System: mouse
- METHOD: Comparative toxicity study (LD0, LD50) and therapeutic index
- MEASUREMENT SETUP: LD50 expressed in mg/mouse
Form entry: value (mg/mouse) — number only.

Use the examples below as a reference point.
# COMPOUND, TEST SYSTEM, LD50 (mg/mouse)
rows = [
    ("CCN(CC)CCN1C(=O)c2cccc3cc([N+](=O)[O-])cc(c23)C1=O", "mouse", 2),
    ("O=C1c2cccc3cc([N+](=O)[O-])cc(c23)C(=O)N1CCN1CCCC1", "mouse", 0.38),
    ("Sc1ncnc2nc[nH]c12 [6-mercaptopurine, reference compound]", "mouse", 5),
    ("CN(C)CCN1C(=O)c2cccc3cc([N+](=O)[O-])cc(c23)C1=O", "mouse", 0.30),
]

Then there is this compound:
# query: LD50 of entry `O=C1c2cccc3cc([N+](=O)[O-])cc(c23)C(=O)N1CCN1CCCCC1` 2

====

- METHOD: Comparative toxicity study (LD0, LD50) and therapeutic index
- MEASUREMENT SETUP: mouse, in vivo
MEASURED METRIC: selectivity ratio
Kindly provide the number alone.

Sample answers from the record:
# COMPOUND, selectivity ratio
records = [
    ("CN(C)CCN1C(=O)c2cccc3cc([N+](=O)[O-])cc(c23)C1=O", 2),
    ("O=C1c2cccc3cc([N+](=O)[O-])cc(c23)C(=O)N1CCN1CCCC1", 1.26),
]

Form field: reported selectivity ratio of Sc1ncnc2nc[nH]c12 [6-mercaptopurine, reference compound] 5
